B1: TPR t1 (parent)
chain: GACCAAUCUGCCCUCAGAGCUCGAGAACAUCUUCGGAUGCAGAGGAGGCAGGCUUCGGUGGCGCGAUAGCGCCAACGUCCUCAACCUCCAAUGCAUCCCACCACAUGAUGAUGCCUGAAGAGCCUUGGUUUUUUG

variants of: B1; test: polymerase ribozyme fitness, log enrichment relative to wild type (log ratio); higher = more active; in vitro selection for triplet polymerase activity
Binary classification by polymerase ribozyme fitness (log ratio), with -5 as an inclusive lower bound for Condition met; all other cases are Condition not met.

A selection of reference data follows.
variant.description: A50U G52C G77U U130C
answer.label: Condition met
--
variant.description: C56A U92A
answer.label: Condition met
--
variant.description: C20G G107A C114U G122A
answer.label: Condition not met
--
variant.description: C11A A18C A43C C53U
answer.label: Condition met
--
variant.description: U7G G45A U59G U129A
answer.label: Condition met

Next, consider the following variant.
Prompt: Check the entry A43U C80U C99U G120C : does polymerase ribozyme fitness (log ratio) equal or exceed -5?
Response: Condition not met
